Where these numbers come from: patent US20210388087A1

Reported KD ratio to GLS3000 values follow for various binders
# study.target: T1, CD3 epsilon homodimer protein (UniProt P07766 23-126)
# T1 construct: also called CD3 (CD3 epsilon)
# T1 sequence (P07766 23-126): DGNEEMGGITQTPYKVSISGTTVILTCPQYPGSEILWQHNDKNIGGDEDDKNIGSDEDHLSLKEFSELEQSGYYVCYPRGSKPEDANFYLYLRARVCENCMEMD
# protocol.notes: SPR, antibody over immobilised CD3e homodimer;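 further: SPR at 25 °C with CD3 epsilon homodimer amine-coupled to a CM4 sensor chip and antibody flowed over as analyte in HBS-EP+ running buffer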
Enter the number alone.

The cases that follow already have their KD ratio to GLS3000 on record.
CE115HA000/GLS3000 N28M (antibody, IgG1, name in Kabat numbering, V domains shown, one-arm IgG1) VH: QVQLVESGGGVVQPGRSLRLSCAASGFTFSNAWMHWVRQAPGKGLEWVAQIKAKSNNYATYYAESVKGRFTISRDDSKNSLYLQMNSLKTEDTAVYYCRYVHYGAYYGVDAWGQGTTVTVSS VL: DIVMTQSPLSLPVTPGEPASISCRSSQSLVHSMRNTYLHWYQQKPGQAPRLLIYKVSNRFSGVPDRFSGSGSGTDFTLKISRVEAEDVGVYYCGQGTQVPYTFGQGTKLEIK	3.29
CE115HA000/GLS3000 N30D (antibody, IgG1, name in Kabat numbering, V domains shown, one-arm IgG1) VH: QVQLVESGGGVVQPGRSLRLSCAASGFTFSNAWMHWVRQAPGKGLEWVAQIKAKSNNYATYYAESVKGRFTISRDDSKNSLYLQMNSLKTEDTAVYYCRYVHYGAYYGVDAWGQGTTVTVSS VL: DIVMTQSPLSLPVTPGEPASISCRSSQSLVHSNRDTYLHWYQQKPGQAPRLLIYKVSNRFSGVPDRFSGSGSGTDFTLKISRVEAEDVGVYYCGQGTQVPYTFGQGTKLEIK	3.82
CE115HA000/GLS3000 H27dK (antibody, IgG1, name in Kabat numbering, V domains shown, one-arm IgG1) VH: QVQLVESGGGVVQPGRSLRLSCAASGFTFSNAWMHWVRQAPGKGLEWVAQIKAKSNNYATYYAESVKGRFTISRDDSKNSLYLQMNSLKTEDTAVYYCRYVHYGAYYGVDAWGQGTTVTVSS VL: DIVMTQSPLSLPVTPGEPASISCRSSQSLVKSNRNTYLHWYQQKPGQAPRLLIYKVSNRFSGVPDRFSGSGSGTDFTLKISRVEAEDVGVYYCGQGTQVPYTFGQGTKLEIK	3.8

Now for another entry.
Report KD ratio to GLS3000, nothing else, for this binder: CE115HA000/GLS3000 S56G (antibody, IgG1, name in Kabat numbering, V domains shown, one-arm IgG1) VH: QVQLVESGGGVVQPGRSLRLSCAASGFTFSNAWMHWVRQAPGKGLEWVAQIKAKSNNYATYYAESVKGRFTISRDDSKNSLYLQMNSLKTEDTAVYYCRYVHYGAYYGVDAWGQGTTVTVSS VL: DIVMTQSPLSLPVTPGEPASISCRSSQSLVHSNRNTYLHWYQQKPGQAPRLLIYKVSNRFGGVPDRFSGSGSGTDFTLKISRVEAEDVGVYYCGQGTQVPYTFGQGTKLEIK
0.99
